Assay System: Induced myeloid leukemia cell differentiation protein Mcl-1 (Homo sapiens)
Experiment Description: modulators of Bim peptide binding to Mcl-1, dose response, biochemical, bead-based flow cytometry, multiplexed, human (AID 1329)
Settings: Bim peptide-Mcl-1 binding, MCF
The source made the active and inactive calls. The rule behind the calls is not given here.
Metric: percent span

Take a look at these entries with their results.
compound=Cc1ccc(C)c(NC(=O)C(=O)NCc2ccccn2)c1 measurement=inactive
compound=Brc1ccc2ncnc(Nc3ccc(N4CCOCC4)cc3)c2c1 measurement=inactive
compound=CSc1ccccc1NC(=O)CN(C)CC(=O)Nc1ccc(N2CCOCC2)cc1 measurement=inactive
compound=Cc1cc(-c2csc(N)n2)c(C)n1C measurement=inactive
compound=CCOc1cccc(CNc2ccc(O)cc2)c1OCc1ccccc1Cl measurement=inactive
compound=CNC(=O)c1c(N)sc2c1CCCCC2 measurement=inactive
compound=CCCCc1ccc(NC(=S)NCc2ccc(OC)cc2)cc1 measurement=inactive
compound=COc1ccc(NC(=O)/C(C#N)=C/c2c(C)nn(-c3ccc(F)cc3)c2Cl)cc1Cl measurement=inactive
compound=Nc1ccc(Nc2nc(-c3ccncc3)cs2)cc1 measurement=inactive
compound=COc1cc(C2Nc3cccc4cccc(c34)N2)ccc1OC(C)=O measurement=inactive

## Input I would be grateful if you could share the reported percent span for Cc1nnc(Sc2cc(NCCCO)c([N+](=O)[O-])c3nonc23)s1 .
## Output inactive

## Input I would be grateful if you could share the reported percent span for C=CS(=O)(=O)c1sc(Cl)c(N2CCOCC2)c1[N+](=O)[O-] .
## Output inactive

## Input I would be grateful if you could share the reported percent span for COc1ccc(OC)c(-n2c(-c3ccc(C)cc3)n[nH]c2=S)c1 .
## Output inactive

## Input I would be grateful if you could share the reported percent span for Cc1ccc(-c2cc(C(=O)Nc3cccnc3)c3ccccc3n2)o1 .
## Output inactive

## Input I would be grateful if you could share the reported percent span for N#Cc1cc(-c2ccccc2)nn1-c1ccccc1 .
## Output inactive

## Input I would be grateful if you could share the reported percent span for O=C(CSc1ccc(-c2ccccc2)nn1)NCc1ccco1 .
## Output inactive

## Input I would be grateful if you could share the reported percent span for Cc1ccc(C(NC(=O)C(C)C)c2cc([N+](=O)[O-])c3cccnc3c2O)cc1 (stereo not drawn) .
## Output inactive

## Input I would be grateful if you could share the reported percent span for COc1ccc(C2=Nc3cccc4cccc(c34)N2)cc1 .
## Output inactive

## Input I would be grateful if you could share the reported percent span for Cc1cc(C)c(S(=O)(=O)/N=C2/C=C(SCC(=O)O)C(=O)c3ccccc32)cc1C .
## Output inactive

## Input I would be grateful if you could share the reported percent span for CNC(=O)CC1C(=O)N(Cc2ccccc2)C(=S)N1NC(=O)c1cccc(F)c1 (stereo not drawn) .
## Output inactive
